PROTOCOL NOTES: Antiproliferative activity against mouse B16F10 cells after 48 to 72 hrs by MTT assay
Format: functional, cell-based
RUN CONDITIONS: B16-F10
OBSERVED PROPERTY: IC50 (µM)
Hi! Could you send only the number? It should be in µM, unit omitted.

QUERY: Tell me the measured IC50 of CC1(C)O[C@H]2[C@@H]([C@H]3COC(C)(C)O3)O[P@](=O)(c3ccccc3)[C@@H](O)[C@H]2O1 , please.
RESULT: 9.95

QUERY: Fill in: IC50 of Cc1ccc(N[C@@H]2[C@H]3OC(C)(C)O[C@H]3[C@@H]([C@H]3COC(C)(C)O3)O[P@@]2(=O)c2ccccc2)cc1 is ___
RESULT: 2.02

QUERY: State the recorded IC50 for this entry: CC1(C)O[C@@H]2[C@H](O1)[C@@H](NCc1ccccc1)[P@](=O)(c1ccccc1)O[C@@H]2[C@H]1COC(C)(C)O1
RESULT: 2.05

QUERY: Name the reported IC50 value associated with the molecule CC1(C)O[C@@H]2[C@H](O1)[C@@H](Nc1ccccc1)[P@](=O)(c1ccccc1)O[C@@H]2[C@H]1COC(C)(C)O1
RESULT: 1.96

---

PROTOCOL NOTES: Antiproliferative activity against mouse B16F10 cells after 48 to 72 hrs by MTT assay
Type: functional, cell-based
RUN CONDITIONS: B16-F10
I'd appreciate it if you could supply IC50 values for the items below.
The reply should be a number in nM, with the unit left off.

QUERY: Which IC50 value belongs to CC1(C)O[C@@H]2[C@H](O1)[C@@H](N)[P@](=O)(c1ccccc1)O[C@@H]2[C@H]1COC(C)(C)O1 ?
RESULT: 1020

QUERY: Quick check: IC50 of Cc1ccc(S(=O)(=O)O[C@H]2[C@H]3OC(C)(C)O[C@H]3[C@@H]([C@H]3COC(C)(C)O3)O[P@]2(=O)c2ccccc2)cc1 ?
RESULT: 1640

QUERY: Would you mind telling me what IC50 value was observed for CC1(C)O[C@H]2[C@@H]([C@H]3COC(C)(C)O3)O[P@](=O)(c3ccccc3)[C@@H](OS(C)(=O)=O)[C@H]2O1 ?
RESULT: 2080

QUERY: Give the measured IC50 of CC(=O)N[C@@H]1[C@H]2OC(C)(C)O[C@H]2[C@@H]([C@H]2COC(C)(C)O2)O[P@@]1(=O)c1ccccc1 .
RESULT: 14900

QUERY: So what does the record say about IC50 for CC1(C)O[C@H]2[C@@H]([C@H]3COC(C)(C)O3)O[P@](=O)(c3ccccc3)[C@@H](Oc3ccc(N)cc3)[C@H]2O1 ?
RESULT: 4690

---

Kindly state pIC50 for each of the entries shown.
Tested on: C6
PROTOCOL NOTES: Antiproliferative activity against rat C6 cells after 48 to 72 hrs by MTT assay
Type: functional, cell-based
Value format note: pIC50 is -log10 of concentration (mol/L); just state the number.

QUERY: Query: pIC50; subject: CC(=O)O[C@H]1[C@H]2OC(C)(C)O[C@H]2[C@@H]([C@H]2COC(C)(C)O2)O[P@]1(=O)c1ccccc1
RESULT: 4.99

QUERY: Find the recorded pIC50 belonging to CCCC[P@@]1(=O)O[C@H]([C@H]2COC(C)(C)O2)[C@@H]2OC(C)(C)O[C@@H]2[C@@H]1O and report it.
RESULT: 5.06

QUERY: Please give the measured pIC50 for this molecule: CC1(C)O[C@H]2[C@@H]([C@H]3COC(C)(C)O3)O[P@](=O)(c3ccccc3)[C@@H](Oc3ccc([N+](=O)[O-])c([N+](=O)[O-])c3)[C@H]2O1
RESULT: 5.03

QUERY: Would you mind telling me what pIC50 value was observed for CC1(C)O[C@H]2[C@@H]([C@H]3COC(C)(C)O3)O[P@](=O)(c3ccccc3)[C@@H](OC(=O)c3ccccc3)[C@H]2O1 ?
RESULT: 5.07

QUERY: Which pIC50 reading was recorded for the molecule CC1(C)O[C@H]2[C@@H]([C@H]3COC(C)(C)O3)O[P@](=O)(c3ccccc3)[C@@H](Oc3ccc([N+](=O)[O-])cc3)[C@H]2O1 ?
RESULT: 4.50

QUERY: GET /values?readout=pIC50&item= Cc1ccc(S(=O)(=O)O[C@H]2[C@H]3OC(C)(C)O[C@H]3[C@@H]([C@H]3COC(C)(C)O3)O[P@]2(=O)c2ccccc2)cc1
RESULT: 5.16

QUERY: # get_value(readout='pIC50', item= CC1(C)O[C@H]2[C@@H]([C@H]3COC(C)(C)O3)O[P@](=O)(c3ccccc3)[C@@H](Oc3ccc(N)cc3)[C@H]2O1 )
RESULT: 5.03
